System: SK-MEL-2 melanoma
Experiment: NCI-60 one-dose screen, 48 h (100 = growth as untreated, 0 = no growth, -100 = all killed)
Settings: 10 µM
About 83,000 compounds went through this panel and 20% of them were active in at least one assay; those are over-represented in the sample as a whole.
Let's look at some compounds and their measured growth.
measured parameter: growth (%)

{"compound": "COc1ccc(C(=O)N/N=C/c2cc(C(F)(F)F)ccc2Cl)cc1", "measured parameter": "growth", "quantity unit": "%", "test result": 104}
{"compound": "CC(CN(C)C)Oc1ccccc1NC1=C(Cl)C(=O)C(Nc2ccccc2OC(C)CN(C)C)=C(Cl)C1=O (centres undefined)", "measured parameter": "growth", "quantity unit": "%", "test result": -61.2}
{"compound": "COC(=O)C1(O)NC(=C(C#N)C#N)C(C#N)=C1C(=O)c1ccc(OC)c(OC)c1 (centres undefined)", "measured parameter": "growth", "quantity unit": "%", "test result": 104}
{"compound": "O=C(CSc1nnc(-c2cccnc2SCc2ccccc2)o1)Nc1nc(Cl)cc(Cl)n1", "measured parameter": "growth", "quantity unit": "%", "test result": 102}
{"compound": "O=C1c2ccccc2C(=O)N1CCCCNc1ccccc1", "measured parameter": "growth", "quantity unit": "%", "test result": 121}
{"compound": "COc1cc(-c2nc3ccccc3o2)cc(CN2CCCCC2)c1O", "measured parameter": "growth", "quantity unit": "%", "test result": 89.3}
{"compound": "O=C(O)c1ccc(-n2cc(CNc3ccc(Oc4ccccc4)cc3)c(-c3ccccc3)n2)cc1", "measured parameter": "growth", "quantity unit": "%", "test result": 88.5}
{"compound": "COc1ccc2cc(-c3nc4ccccc4s3)c(Cl)nc2c1OC", "measured parameter": "growth", "quantity unit": "%", "test result": 95.8}
{"compound": "N#CCc1csc(Cc2ccccc2)n1", "measured parameter": "growth", "quantity unit": "%", "test result": 101}
{"compound": "COc1cc(-c2csc(NC(=O)Nc3ccc(Cl)c(C(F)(F)F)c3)n2)cc(OC)c1OC", "measured parameter": "growth", "quantity unit": "%", "test result": -14.3}
{"compound": "COc1cc(C2CC(c3ccc4c(c3)OCO4)=NN2c2ccccc2)cc(OC)c1OC (centres undefined)", "measured parameter": "growth", "quantity unit": "%", "test result": 108}
{"compound": "Nc1ncnc2c1ncn2C1(CO)OCC(O)C(O)C1O (centres undefined)", "measured parameter": "growth", "quantity unit": "%", "test result": 93.5}
{"compound": "Clc1ccc(/C=C2\\CCCC3C2=Nc2ccccc2NC3c2ccc(Cl)cc2)cc1 (centres undefined)", "measured parameter": "growth", "quantity unit": "%", "test result": 92.1}
{"compound": "COc1cccc(C2C(C#N)=C(N)Oc3cc(N)ccc32)c1 (centres undefined)", "measured parameter": "growth", "quantity unit": "%", "test result": 24.5}
{"compound": "IC(I)I", "measured parameter": "growth", "quantity unit": "%", "test result": 108}
{"compound": "O=C1C=C(Nc2cccc(Br)c2)c2ccccc2C1=O", "measured parameter": "growth", "quantity unit": "%", "test result": 7.56}
{"compound": "CCCCCCCCCCOC(c1ccccc1)c1ccccc1", "measured parameter": "growth", "quantity unit": "%", "test result": 73.5}
{"compound": "COc1cccc(N=Nc2cccc(OC)c2)c1", "measured parameter": "growth", "quantity unit": "%", "test result": 94.4}
{"compound": "O=[N+]([O-])c1cc(Cl)cc(Cl)c1O", "measured parameter": "growth", "quantity unit": "%", "test result": 103}
{"compound": "C=CCn1c(SCC(=O)Nc2ccc(C(=O)/C=C/c3ccc(OC)cc3)cc2)nnc1-c1ccc(OC)c(OC)c1", "measured parameter": "growth", "quantity unit": "%", "test result": 89.3}
{"compound": "c1ccc(CCCCc2ccc3ccccc3n2)cc1", "measured parameter": "growth", "quantity unit": "%", "test result": 94.3}
{"compound": "COc1ccc2c(c1)C(=O)/C(=C/c1cccc(OCC(=O)c3ccc([N+](=O)[O-])cc3)c1)CO2", "measured parameter": "growth", "quantity unit": "%", "test result": -47.3}
{"compound": "CN(C)CCN(Cc1ccccc1)c1ccc2ccccc2n1", "measured parameter": "growth", "quantity unit": "%", "test result": 103}
{"compound": "N#CC1=CC2CN(Cc3ccccc3)C1C1C(=O)N(c3ccccc3)C(=O)C21 (centres undefined)", "measured parameter": "growth", "quantity unit": "%", "test result": 105}

---

Test system: UACC-62 melanoma
Assay: NCI-60 one-dose screen, 48 h
Conditions: 10 µM
This is part of a sample that, as a whole, favours compounds with a hit. Of some 83,000 tested, about 20% had one in any assay. Calls of active or inactive are those of the source. Rule for the calls: active = growth percent below 10; inactive = the rest.
Classes used: active, inactive

{"compound": "CCOC(=O)c1cc(C(=O)c2cc(OC)c(OC)c(OC)c2)n2ccc(-c3cc[n+](CC(=O)c4cc(OC)c(OC)c(OC)c4)cc3)cc12", "label": "inactive"}
{"compound": "COc1ccc(-c2cc(-c3ccc(Cl)cc3)nc(SCCCCCCC(=O)NO)n2)cc1OC", "label": "inactive"}
{"compound": "CCn1cc(CNc2ccc(C(=O)Nc3ccc4ccccc4c3)cc2)c(C)n1", "label": "inactive"}
{"compound": "COc1ccc(/C(C#N)=C/c2cccc(OC)c2OC)cc1", "label": "inactive"}
{"compound": "Cc1ccc(NC(=O)N2CCCCC2)cc1[N+](=O)[O-]", "label": "inactive"}
{"compound": "COc1ccccc1-n1c(-c2sc(NC(C)=O)nc2C)n[nH]c1=S", "label": "inactive"}
{"compound": "O=C1CSC(=S)N1/N=C/c1ccc(Cl)s1", "label": "inactive"}
{"compound": "COc1ccc(/C=C2/SC(=S)NC2=O)c(OC)c1OC", "label": "inactive"}
{"compound": "OC(CNc1ccnc2cc(Cl)ccc12)CNC1CCCCC1 (configuration not stated)", "label": "inactive"}
{"compound": "S=c1cnc2ccccc2[nH]1", "label": "inactive"}
{"compound": "CC(C)C[C@H](NC(=O)Cn1cccc(CNC(=O)c2ccccc2)c1=O)B(O)O", "label": "active"}
{"compound": "C=CCSC(CC)(CC)C(=O)NC", "label": "inactive"}
{"compound": "COc1ccc(C(=O)N/N=C/c2cc(C(F)(F)F)ccc2Cl)cc1", "label": "inactive"}
{"compound": "CC1C(=NC(=O)c2cnccn2)C(C)C(c2ccc(Cl)cc2)NC1c1ccncc1 (configuration not stated)", "label": "inactive"}
{"compound": "Cc1nn(-c2ccccc2)c2nc(Cl)c(C=O)c(-c3ccccc3)c12", "label": "inactive"}
{"compound": "CN1CCN(c2cc3c(cc2F)c(=O)c(C(=O)O)cn3-c2ccc(F)cc2)CC1", "label": "inactive"}
{"compound": "CCN(CC)CCCOc1cccc2c1C(=O)c1cccc(OCCCN(CC)CC)c1C2=O", "label": "inactive"}

---

List of growth values.
Test system: SN12C renal
Assay: NCI-60 one-dose screen, 48 h (100 = growth as untreated, 0 = no growth, -100 = all killed)
Conditions: 10 µM
This is part of a sample that, as a whole, favours compounds with a hit. Of some 83,000 tested, about 20% had one in any assay. Calls of active or inactive are those of the source. The calls were made as follows: active = growth percent below 10; inactive = the rest.

{"compound": "Cc1cccc(N=Cc2ccccc2O)c1C", "growth": "89.6% (inactive)"}
{"compound": "O=C(Cn1cc(CO)nn1)Nc1nc2ccccc2s1", "growth": "96.5% (inactive)"}
{"compound": "C#CC(C)(O)[C@@H]1C[C@H](CC(=O)O)C1(C)C (some centres not stated)", "growth": "108% (inactive)"}
{"compound": "CC[C@H]1OC(=O)[C@H](C)[C@@H](O[C@H]2C[C@@](C)(OC)[C@@H](O)[C@H](C)O2)[C@H](C)[C@@H](O[C@@H]2O[C@H](C)C[C@H](N(C)C)[C@H]2O)[C@](C)(OC)C/C(C)=C2/O[C@@]1(C)C=C2C", "growth": "76.9% (inactive)"}
{"compound": "CS(=O)(=O)c1nccc(-c2c(-c3cccc(OCCc4ccccc4)c3)nc3sccn23)n1", "growth": "95.5% (inactive)"}
{"compound": "Fc1ccc2[nH]cc(-c3nc(-c4ccsc4)cs3)c2c1", "growth": "92.5% (inactive)"}
{"compound": "Cn1cnc([N+](=O)[O-])c1/C=C1\\Oc2ccc(Br)cc2C1=O", "growth": "98.6% (inactive)"}
{"compound": "COc1ccc(-c2cc(-c3ccccc3)nc(SCCCCCCC(=O)NO)n2)cc1", "growth": "79.6% (inactive)"}
{"compound": "O=C1Cc2cc(CCN3CCN(c4nsc5ccccc45)CC3)c(Cl)cc2N1", "growth": "91% (inactive)"}
{"compound": "c1ccc(/C(=N\\Nc2ccc3ccccc3n2)c2ccccn2)cc1", "growth": "18.5% (inactive)"}
{"compound": "N=C1S/C(=C/c2ccc(-c3ccc4c(c3)C(=O)NC4=O)o2)C(=O)N1c1ccc(Br)cc1", "growth": "56.3% (inactive)"}
{"compound": "Cc1ccc(-n2c(C)nn3c(=O)c4c5c(sc4nc23)CN(C)CC5)cc1", "growth": "97.6% (inactive)"}
